Assay: Urinary excretion of free and conjugated DDTC
Format: in vivo, rats
Conditions: rat, urine, ip, 500 mg/kg, NaDDTC 500 mg/kg ip; read-out: Total DDTC excreted by the kidneys within 2 hours, of the dose given
Experimental: Intravenous administration was explored in an attempt to deliver larger quantities of free DDTC anion to the likely site of toxicity in the renal tubule; urinary excretion of DDTC was monitored as a means of estimating changes in tubular levels of free DDTC. […] Excretion of free and conjugated NaDDTC in the urine of rats was measured as follows. […] Rats were then placed in metabolic cages and urine was collected and analyzed at 30 minute intervals. […] Total DDTC was determined by addition of 0. […]
Observation Type: dose excreted at 2 h

| Smiles Text | Observation Type | Observed Value |
| --- | --- | --- |
| CCN(CC)C(=S)[S][Na] | dose excreted at 2 h | 18 to 20% |

Data provenance: patent US4594238A
